Molecular target: T1, His-tagged human TIGIT (human, UniProt Q495A1 22-141)
T1 construct: SPR analyte; also called human TIGIT protein; not shown: His tag
T1 sequence: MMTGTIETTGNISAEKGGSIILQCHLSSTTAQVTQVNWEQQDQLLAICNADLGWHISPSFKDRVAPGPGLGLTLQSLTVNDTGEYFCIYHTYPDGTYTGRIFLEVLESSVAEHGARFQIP
Test: SPR experiment 2, IgG from HEK293 supernatant captured
quantity_name: pKd
Numbers only, as −log10 of the molar value.

Example entries and their recorded answers appear below.
{"binder": "humanized TIGIT-19 antibody 19VH4.M7 + 19VL1 (antibody, V domains shown, Full-length IgG, tested as HEK293 supernatant) VH: QVQLVQSGAEVKKPGASVKVSCKASGYTFTRYSMYWVRQAPGQGLEWIAFIDPYSGGSTYAQKFQGKATLTVDTSISTAYMELSRLRSDDTAVYYCARGGDYGWYLGVWGQGTLVTVSS VL: DIQMTQSPSSLSASVGDRVTITCRPSENIYTYLSWYQQKPGKAPKLLIYNAKTLPEGVPSRFSGSGSGTDFTLTISSLQPEDFATYYCQHHYGNPLTFGQGTKVEIK", "meas_value": 9.52}
{"binder": "humanized TIGIT-19 antibody 19VH4 + 19VL1.M7 (antibody, V domains shown, Full-length IgG, tested as HEK293 supernatant) VH: QVQLVQSGAEVKKPGASVKVSCKASGYAFSRYSMYWVRQAPGQGLEWIAFIDPYNGGSTYNQRFRGKATLTVDTSISTAYMELSRLRSDDTAVYYCARGGDYGWYLGVWGQGTLVTVSS VL: DIQMTQSPSSLSASVGDRVTITCRASQSIYSYLSWYQQKPGKAPKLLIYNAKSLPSGVPSRFSGSGSGTDFTLTISSLQPEDFATYYCQHHYGNPLTFGQGTKVEIK", "meas_value": 9.89}

Please examine the following record next.
// pKd lookup, binder = humanized TIGIT-19 antibody 19VH4.M5 + 19VL1 (antibody, V domains shown, Full-length IgG, tested as HEK293 supernatant) VH: QVQLVQSGAEVKKPGASVKVSCKASGYAFSRYSMYWVRQAPGQGLEWIAFIDPYNGGSTYAQKFQGKATLTVDTSISTAYMELSRLRSDDTAVYYCARGGDYGWYLGVWGQGTLVTVSS VL: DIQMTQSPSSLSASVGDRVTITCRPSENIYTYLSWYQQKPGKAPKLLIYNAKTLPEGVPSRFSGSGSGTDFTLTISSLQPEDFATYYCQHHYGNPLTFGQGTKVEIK , result: 9.80
